- experimental_system: human FXR (Homo sapiens, UniProt Q96RI1)
- Sequence (Q96RI1 262-486 limits assumed): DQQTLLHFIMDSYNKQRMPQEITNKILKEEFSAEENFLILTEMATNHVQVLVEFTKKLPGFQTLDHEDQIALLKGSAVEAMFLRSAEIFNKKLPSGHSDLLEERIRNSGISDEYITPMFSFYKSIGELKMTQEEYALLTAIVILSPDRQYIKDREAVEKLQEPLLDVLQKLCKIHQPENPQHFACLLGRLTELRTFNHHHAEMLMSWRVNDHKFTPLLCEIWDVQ
- protocol_notes: transient human FXR/Gal4-luciferase reporter assay
- condition_context: Gal4-hFXR fusion construct, luciferase reporter in HEK293 cells; overnight incubation; response as percentage of 8 μM GW-4064 control
quantity: EC50 (nM)

Field: example entries. Status: answers known.
CNS(=O)(=O)c1cccc(N(CC23CCC(c4noc(C(C)(F)F)n4)(CC2)CC3)C(=O)C2CCC(F)(F)CC2)c1
4000
CC(C)(C)OC(=O)Nc1cccc(N(CC23CCC(c4noc(C(C)(F)F)n4)(CC2)CC3)C(=O)C23CC(F)(C2)C3)c1
62
CC(F)(F)c1nc(C23CCC(CN(C(=O)C4CCC(F)(F)CC4)c4cccc(P(C)(C)=O)c4)(CC2)CC3)no1
4000
CCOc1cccc(N(CC23CCC(c4nc(C5CC5)no4)(CC2)CC3)C(=O)C2CCS(=O)(=O)CC2)c1
4000

I. O=C(N(CC12CCC(c3ccc(C(F)(F)F)cn3)(CC1)CC2)c1cccc(Nc2ccc(OC(F)F)cc2)c1)C12CC(F)(C1)C2
II. CC(C)(C)c1nc(C23CCC(CN(C(=O)C45CC(F)(C4)C5)c4cccc(Nc5ccc(OC(F)F)cn5)c4)(CC2)CC3)no1
III. CCOc1cccc(N(CC23CCC(c4nc(C5CC5)no4)(CC2)CC3)C(=O)C2CCOCC2)c1
Order each entry by recorded EC50, climbing from the minimum. # respond with the labels, arranged in the requested order
II, III, I

a. CC(F)(F)c1ccc(C23CCC(CN(c4cccc(C#N)c4)C(=O)[C@H]4C[C@](O)(C(F)(F)F)C4)(CC2)CC3)nc1
b. CC(F)(F)c1nc(C23CCC(CN(c4cccc(C(F)(F)F)c4)C(=O)[C@H]4C[C@](O)(C(F)(F)F)C4)(CC2)CC3)no1
For the two items a and b , which reports the higher EC50 value? Please respond with the label that marks your chosen entry.
a

meta.source: patent US12319676B2
